Values from paper PMC9860126

The following binders are listed with their measured pKd values.
- study target: HpNikR Q81A (Helicobacter pylori G27, UniProt A1YSQ9 1-148, Q81A)
- assay details: fluorescence anisotropy; Ni(II)-bound; FA: 5 nM DNA, 20 mM Tris pH 7.6, 100 mM NaCl, 3 mM MgSO4, temperature not stated (Ni loading 1.2 eq NiSO4 per monomer at RT). EMSA: 20 mM Tris pH 7.5, 100 mM KCl, 3 mM MgCl2, 0.1% IGEPAL, 5% glycerol, 0.1 mg/ml herring sperm DNA, RT; gel with 800 uM NiSO4 at 4 C
- assay conditions: protein: recombinant; tags: none stated; chain copies: 4; label: fluorescein on internal thymine (T14 of strand 1); blunt
pKd: −log10 of the molar value.

# binder, pKd
records = [
    ("ureA-perf promoter 32 bp (dsDNA) DNA 1: ATATATTATTAATTCATTTTAAATAATAATTA DNA 2: TAATTATTATTTAAAATGAATTAATAATATAT", 8.41),
    ("ureA promoter 32 bp (FA) (dsDNA) DNA 1: ATATAACACTAATTCATTTTAAATAATAATTA DNA 2: TAATTATTATTTAAAATGAATTAGTGTTATAT", 8.19),
]
